Catalogue of GI50 values
Tested on: BT-549 breast
protocol.text: NCI tumour cell line growth inhibition, 48 h
readout.kind: GI50

• O=C1NC(=NCCCc2ccccc2)S/C1=C\c1ccc2ncccc2c1 = 4.58 µM
• COc1cc2c3c(n(C)c(=O)c2cc1OC)-c1ccc(C#N)cc1C3=O = > 100 µM
• CN1C(=O)C2(c3ccccc31)N(c1ccc(Cl)cc1)C(=O)C2(c1ccccc1)c1ccccc1 (stereo not given) = > 100 µM
• CCCCCCCCCCCCCC[C@@H](O)[C@H]1CC[C@H]([C@H]2CC[C@H]([C@H](O)CCCCCC[C@@H](O)CC3=C[C@H](C)OC3=O)O2)O1 = 1.88 µM
• COc1ccc2c(OCc3nnc4ccc(-c5ccccc5)nn34)ccnc2c1 = > 100 µM

Data origin, for the record: PubChem BioAssay (NCI)
